Where do the numbers come from? From patent USRE46585.

targetSystem: T1, FcRn-p3 fusion protein (human, UniProt P55899 24-297; P61769 21-119)
T1 construct: baculovirus expressed; coated on ELISA wells; not shown: amino terminal part of bacteriophage p3 protein and CVDE protein
T1 sequence (P55899 24-297, chain 1 of 2): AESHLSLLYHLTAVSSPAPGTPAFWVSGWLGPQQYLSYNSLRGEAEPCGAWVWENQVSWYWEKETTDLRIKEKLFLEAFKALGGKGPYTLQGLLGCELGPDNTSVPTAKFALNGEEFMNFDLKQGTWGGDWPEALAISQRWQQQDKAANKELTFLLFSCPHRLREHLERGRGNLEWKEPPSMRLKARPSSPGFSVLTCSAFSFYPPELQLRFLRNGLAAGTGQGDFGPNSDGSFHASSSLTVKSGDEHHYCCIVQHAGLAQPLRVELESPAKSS
T1 sequence (P61769 21-119, chain 2 of 2): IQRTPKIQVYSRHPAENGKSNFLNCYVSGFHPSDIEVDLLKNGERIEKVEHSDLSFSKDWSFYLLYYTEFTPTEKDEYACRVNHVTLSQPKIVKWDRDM
testSummary: phage ELISA pH6 (est.)
measureName: Ratio/FWT (fold)
Dear colleague, please return just the value in fold, with no unit written.

Q: Could you tell me which Ratio/FWT is on file for T5A_59 (other, EU numbering) CPPCPAPELLGGPSVFLFPPKPKDTLMISRTPEVTCVVVDVSHEDPEVKFNWYVDGVEVHNAKTKPREEQYNSTYRVVSVLTVLHQDWLNGKEYKCKVSNKALPAPIEKTISKAKGRPREPQVYTLPPSGDELTKNQVSLTCLVKGFYPSDIAVEWVSNGQPENNYKTTPPVLDSDGSFFLYSKLTVDKSRWQQGNVFSCSVMHEALHYHYTQKSLSLSPGK ?
Result: 7.8

Q: Then what about the binder T4A_26 (other, EU numbering) CPPCPAPELLGGPSVFLFPPKPKDTLMISRTPEVTCVVEDVSHEDPEVKFNWYVDGVEVHNAKTKPREEQYNSTYRVVSVLPVLHQDWLNGKEYKCKVSNKALPAPIEKTISKAKGQPREPQVYTLPPSRDELTKNQVSLTCLVKGFYPSDIVVEWGSNGRPENNYKTTPPVLDSDGSFFLYSKLTVDKSRWQQGNVFSCSVMHEALHNHYTQKSLSLSPGK ?
Result: 11.5
